Quick reference: Maximum inhibition rate %; hIL36γ; IL-8 production of the listed items.
# Assayed System: T1, IL-36R naturally expressed on OVCAR8 cells and on normal human epidermal keratinocytes (NHK cells) (human, UniProt Q9HB29 20-575)
# T1 sequence (looked up): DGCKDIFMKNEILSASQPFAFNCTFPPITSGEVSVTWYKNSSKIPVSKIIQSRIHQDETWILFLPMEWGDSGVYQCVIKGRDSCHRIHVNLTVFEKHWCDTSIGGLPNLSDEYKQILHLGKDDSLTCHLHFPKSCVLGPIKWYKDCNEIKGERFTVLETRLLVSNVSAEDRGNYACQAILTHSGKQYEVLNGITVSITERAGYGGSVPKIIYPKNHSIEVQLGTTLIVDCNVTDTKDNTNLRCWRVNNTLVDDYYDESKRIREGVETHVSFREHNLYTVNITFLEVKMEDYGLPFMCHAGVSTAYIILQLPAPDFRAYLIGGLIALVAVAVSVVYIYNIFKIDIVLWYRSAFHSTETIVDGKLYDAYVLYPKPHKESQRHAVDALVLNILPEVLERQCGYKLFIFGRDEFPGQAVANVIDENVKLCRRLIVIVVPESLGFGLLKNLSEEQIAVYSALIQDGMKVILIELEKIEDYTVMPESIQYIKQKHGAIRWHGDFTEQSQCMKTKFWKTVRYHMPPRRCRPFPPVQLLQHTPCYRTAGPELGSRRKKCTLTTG
# Protocol Summary: cell-based or functional assay

Reference set, count: 2
Endpoint output: Maximum inhibition rate %; hIL36γ; IL-8 production of hz84C4-1.2 (antibody, human IgG4 S228P, kappa, V domains shown, Humanized, human IgG4 / kappa) VH: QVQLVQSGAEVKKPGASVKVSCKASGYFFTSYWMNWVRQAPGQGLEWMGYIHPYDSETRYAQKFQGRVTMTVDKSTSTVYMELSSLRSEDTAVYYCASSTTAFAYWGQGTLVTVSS VL: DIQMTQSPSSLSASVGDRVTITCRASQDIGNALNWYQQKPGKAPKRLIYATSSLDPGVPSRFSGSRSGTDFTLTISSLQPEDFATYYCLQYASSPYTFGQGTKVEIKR . Value? 98.3%

Endpoint output: Maximum inhibition rate %; hIL36γ; IL-8 production of hz84C4-2.4 (antibody, human IgG4 S228P, kappa, V domains shown, Humanized, human IgG4 / kappa) VH: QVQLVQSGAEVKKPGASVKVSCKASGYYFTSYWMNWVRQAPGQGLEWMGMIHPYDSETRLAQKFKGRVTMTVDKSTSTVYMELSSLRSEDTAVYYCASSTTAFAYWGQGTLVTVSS VL: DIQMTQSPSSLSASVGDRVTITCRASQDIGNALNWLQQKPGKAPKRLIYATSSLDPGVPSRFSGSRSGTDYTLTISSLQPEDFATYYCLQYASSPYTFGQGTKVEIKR . Value? 101%

Here is the next item to consider.
Endpoint output: Maximum inhibition rate %; hIL36γ; IL-8 production of hz84C4-1.1 (antibody, human IgG4 S228P, kappa, V domains shown, Humanized, human IgG4 / kappa) VH: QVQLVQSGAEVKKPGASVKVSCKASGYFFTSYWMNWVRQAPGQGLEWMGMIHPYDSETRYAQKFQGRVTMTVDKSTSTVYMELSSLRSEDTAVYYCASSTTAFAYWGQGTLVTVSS VL: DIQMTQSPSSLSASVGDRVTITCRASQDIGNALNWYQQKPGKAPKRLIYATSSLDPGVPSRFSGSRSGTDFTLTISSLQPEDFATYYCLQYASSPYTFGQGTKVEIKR . Value? 103%
